Molecular target: CYP3A4 (Homo sapiens, UniProt P08684)
Construct: purchased BD Gentest, Becton-Dickinson (Supersomes); host or cells: insect cells (microsomes)
Sequence (P08684 whole entry): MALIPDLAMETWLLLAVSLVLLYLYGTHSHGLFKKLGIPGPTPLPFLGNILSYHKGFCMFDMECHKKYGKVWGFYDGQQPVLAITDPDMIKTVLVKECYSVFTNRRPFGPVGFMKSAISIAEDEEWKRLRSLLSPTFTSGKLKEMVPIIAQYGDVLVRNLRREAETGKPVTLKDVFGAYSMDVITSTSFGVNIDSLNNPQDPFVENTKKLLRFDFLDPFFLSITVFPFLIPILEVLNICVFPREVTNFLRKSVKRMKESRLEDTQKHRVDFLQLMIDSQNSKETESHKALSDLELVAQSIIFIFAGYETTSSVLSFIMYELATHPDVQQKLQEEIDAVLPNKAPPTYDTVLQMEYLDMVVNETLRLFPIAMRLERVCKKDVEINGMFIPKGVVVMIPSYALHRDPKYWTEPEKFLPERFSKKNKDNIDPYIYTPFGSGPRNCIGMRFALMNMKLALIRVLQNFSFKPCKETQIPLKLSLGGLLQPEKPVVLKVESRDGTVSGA
Experiment: Cytochrome P450 inhibition, CYP3A4
Format: in vitro ADME
Conditions: substrate BQ, Supersomes; read-out: IC50 (μM) 3A4 (BQ)
MEASUREMENT_LABEL: IC50 (µM)

A: CCC[C@@H]1NC(=O)[C@@H](C(C)C)NC(=O)[C@@H](Cc2cccc(F)c2)N[C@@H](C)COc2ccccc2CCCNC1=O [Compound 551]
B: CCC[C@@H]1NC(=O)[C@@H](C(C)C)NC(=O)[C@@H](Cc2ccc(O)c(C(C)(C)C)c2)NCCOc2ccccc2CCCNC1=O [Compound 553]
**Query** Recorded IC50 values differ for A and B ; which one is higher? The response must carry the label of the picked entry.
**Result** A

----------
System: Caco-2 cells
Assay: Caco-2 permeability
Type: in vitro ADME, human
Details: 10 μM, apical to basolateral, 60 min, 37° C.
MEASUREMENT_LABEL: Papp A to B (cm/sec × 10^−6)

- CC(C)[C@H]1NC(=O)[C@@H](Cc2ccc(Cl)cc2)NCCOc2ccccc2CCCNC(=O)[C@H](CN(C)C)NC1=O: 5

A: CC(C)[C@H]1NC(=O)[C@@H](Cc2cccc(C(F)(F)F)c2)NCCOc2ccccc2CCCNC(=O)[C@H](CN(C)C)NC1=O
B: CC(C)[C@H]1NC(=O)[C@@H](Cc2cccc(Cl)c2)NCCOc2ccccc2C(C)(C)CCNC(=O)[C@H](CC2CC2)NC1=O
C: CNC[C@@H]1NC(=O)[C@@H](C(C)C)NC(=O)[C@@H](Cc2cccc(Cl)c2)NCCOc2ccccc2CCCNC1=O
D: CC(C)[C@H]1NC(=O)[C@@H](Cc2cccc(F)c2)N[C@@H](C)COc2ccccc2CCCNC(=O)[C@H](CC2CC2)NC1=O
E: CC(C)[C@H]1NC(=O)[C@@H](Cc2cccc(F)c2)NCCOc2ccccc2C[C@H](C)CNC(=O)[C@H](CN(C)C)NC1=O
**Query** List the 5 entries from lowest Papp A to B to highest Papp A to B value. Output the labels ranked as instructed.
**Result** C, B, E, A, D
(C: 0.3 cm/sec × 10^−6, B: 2 cm/sec × 10^−6, E: 3 cm/sec × 10^−6, A: 5 cm/sec × 10^−6, D: 15 cm/sec × 10^−6)

----------
Assay: Pharmacokinetic analysis in rat (i.v., s.c., p.o.)
Assay type: in vivo
Conditions: male, Sprague-Dawley, plasma, po, typical dose 8 mg/kg, in the presence of 10% beta-cyclodextrin, read-out: Elimination (t1/2, min)
MEASUREMENT_LABEL: half-life (min)
# value in min; strip the unit string

**Query** Suppose we examine the compound CCC[C@@H]1NC(=O)[C@@H](C(C)C)NC(=O)[C@@H](Cc2ccc(O)c(Cl)c2)N[C@@H](C)COc2ccccc2CCCNC1=O [Compound 552] ; what half-life value has been reported?
**Result** 307

----------
Experiment: Oral bioavailability in rat of representative formulations of compound 552
Format: in vivo
Conditions: plasma, IV 2 mg/kg, 5% HP-β-CD in water
MEASUREMENT_LABEL: Clearance (mL/min/kg)
# value in mL/min/kg; strip the unit string

**Query** Suppose we examine the compound CCC[C@@H]1NC(=O)[C@@H](C(C)C)NC(=O)[C@@H](Cc2ccc(O)c(Cl)c2)N[C@@H](C)COc2ccccc2CCCNC1=O [Compound 552] ; what Clearance value has been reported?
**Result** 55

----------
Assay: Oral bioavailability in rat of representative formulations of compound 552
Format: in vivo
Details: plasma, iv, 2 mg/kg, IV 2 mg/kg, 5% HP-β-CD in water
Description: The pharmacokinetic behavior of compound of the invention can be ascertained by methods well known to those skilled in the art. […] The pharmacokinetic parameters of representative formulations are determined through established methods known to those skilled-in the art as previously referenced in Method 3-I. Results with representative formulations for a representative compound of the present invention are shown below.
MEASUREMENT_LABEL: AUC(0-inf) (ng·h/mL)
# value in ng·h/mL; strip the unit string

**Query** Suppose we examine the molecule CCC[C@@H]1NC(=O)[C@@H](C(C)C)NC(=O)[C@@H](Cc2ccc(O)c(Cl)c2)N[C@@H](C)COc2ccccc2CCCNC1=O [Compound 552] ; what AUC(0-inf) value has been reported?
**Result** 616

----------
Biological target: human motilin receptor (Homo sapiens, UniProt O43193)
Sequence (O43193 whole entry): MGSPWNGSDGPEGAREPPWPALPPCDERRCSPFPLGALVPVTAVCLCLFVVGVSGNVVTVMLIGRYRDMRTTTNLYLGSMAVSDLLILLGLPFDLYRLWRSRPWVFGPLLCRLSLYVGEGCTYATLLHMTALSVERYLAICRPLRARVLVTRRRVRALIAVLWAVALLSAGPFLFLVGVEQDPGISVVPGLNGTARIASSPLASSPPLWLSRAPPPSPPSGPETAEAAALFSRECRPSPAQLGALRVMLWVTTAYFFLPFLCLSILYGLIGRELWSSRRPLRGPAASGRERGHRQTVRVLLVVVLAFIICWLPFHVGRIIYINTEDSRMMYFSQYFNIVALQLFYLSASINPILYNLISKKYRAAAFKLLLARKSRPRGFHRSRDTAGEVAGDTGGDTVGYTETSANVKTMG
Assay: Aequorin functional assay (motilin receptor)
Settings: functional activity, antagonist testing vs motilin 0.5 nM (EC80)
pIC50: −log10 of the molar value.
Listed here are compounds together with their documented pIC50.

Example entries begin here.
* CCC[C@@H]1NC(=O)[C@@H](C(C)C)NC(=O)[C@@H](Cc2cccs2)N[C@@H](C)COc2ccccc2CCCNC1=O [Compound 571] | ≥ 8.00
* CNC[C@@H]1NC(=O)[C@@H](C(C)C)NC(=O)[C@@H](Cc2cccc(C(F)(F)F)c2)NCCOc2ccccc2CCCNC1=O [Compound 547] | ≥ 8.00

**Query** Suppose we examine the compound CC(C)[C@H]1NC(=O)[C@@H](Cc2cccc(F)c2)N[C@@H](C)COc2ccccc2CCCNC(=O)[C@H](CN(C)C)NC1=O [Compound 529] ; what pIC50 value has been reported?
**Result** ≥ 8.00

**Query** Please answer likewise for CC(C)[C@H]1NC(=O)[C@@H](Cc2cccc(F)c2)N[C@@H](C)COc2ccccc2CCCNC(=O)[C@H](CN=[N+]=[N-])NC1=O [Compound 538]
**Result** ≥ 9.00

----------
Biological target: human motilin receptor (Homo sapiens, UniProt O43193)
Experiment: Competitive radioligand binding assay (motilin receptor)
Set-up: purchased PerkinElmer (SignalScreen) 6110544; host or cells: CHO cells, stably transfected; membranes
Conditions: [125I]-motilin competition, membranes of CHO cells with human motilin receptor; read-out: Ki
pKi: −log10 of the molar value.
MEASUREMENT_LABEL: pKi

- Cc1cnnn1C[C@@H]1NC(=O)[C@@H](C(C)C)NC(=O)[C@@H](Cc2cccc(C(F)(F)F)c2)NCCOc2ccccc2CCCNC1=O: ≥ 7.00

**Query** Param readout= pKi; system= human motilin receptor (Homo sapiens, UniProt O43193); entry= CCC[C@@H]1NC(=O)[C@@H](C(C)C)NC(=O)[C@@H](Cc2ccsc2)N[C@@H](C)COc2ccccc2CCCNC1=O ; returns value.
**Result** ≥ 8.00

**Query** Please answer likewise for COc1ccc(C[C@H]2NCCOc3ccccc3CCCNC(=O)[C@H](CCO)NC(=O)[C@@H](C(C)C)NC2=O)cc1
**Result** ≥ 6.00

**Query** Please answer likewise for CC(C)[C@H]1NC(=O)[C@@H](Cc2cccc(F)c2)N[C@@H](C)COc2ccccc2CCCNC(=O)[C@H](CN2CCOCC2)NC1=O
**Result** ≥ 7.00

**Query** Please answer likewise for CC(C)[C@H]1NC(=O)[C@@H](Cc2cccc(C(F)(F)F)c2)NCCOc2ccccc2CCCNC(=O)[C@H](CN2CCOCC2)NC1=O
**Result** ≥ 7.00

**Query** Please answer likewise for CCC[C@@H]1NC(=O)[C@@H](C(C)C)NC(=O)[C@@H](Cc2cccc(F)c2)N[C@@H](C)COc2ncccc2CCCNC1=O
**Result** ≥ 7.00

----------
Listed here are compounds together with their documented IC50.
Biological target: human motilin receptor (Homo sapiens)
Assay: Aequorin functional assay (motilin receptor)
Conditions: functional activity, antagonist testing vs motilin 0.5 nM (EC80)

* CC(C)[C@H]1NC(=O)[C@@H](Cc2cccc(F)c2)N[C@@H](C)COc2ccccc2CCCNC(=O)[C@H](CN2CCCC2)NC1=O | ≤ 10 nM
* CC(C)[C@H]1NC(=O)[C@@H](Cc2cccc(F)c2)N[C@@H](C)COc2ccccc2C[C@H](C)CNC(=O)[C@H](CN=[N+]=[N-])NC1=O | ≤ 1 nM
* CC(C)[C@H]1NC(=O)[C@@H](Cc2cccc(C(F)(F)F)c2)NCCOc2ccccc2CCCNC(=O)[C@H](CN(C)C)NC1=O | ≤ 10 nM
* CCC[C@@H]1NC(=O)[C@@H](C(C)C)NC(=O)[C@@H](Cc2ccsc2)N[C@@H](C)COc2ccccc2CCCNC1=O | ≤ 1 nM

**Query** Suppose we examine the compound CC(C)[C@H]1NC(=O)[C@@H](Cc2cccc(F)c2)N[C@@H](C)COc2ccccc2CCCNC(=O)[C@H](CN2CCOCC2)NC1=O ; what IC50 value has been reported?
**Result** ≤ 10 nM

**Query** Please answer likewise for CCC[C@@H]1NC(=O)[C@@H](C(C)C)NC(=O)[C@@H](Cc2cccc(F)c2)N[C@@H](C)COc2ncccc2CCCNC1=O
**Result** ≤ 1000 nM

**Query** Please answer likewise for CCC[C@@H]1NC(=O)[C@@H](C(C)C)NC(=O)[C@@H](Cc2cccc(F)c2)N[C@@H](C)COc2cnccc2CCCNC1=O
**Result** ≤ 10 nM

**Query** Please answer likewise for CCC[C@@H]1NC(=O)[C@@H](C(C)C)NC(=O)[C@@H](Cc2cccc(F)c2)N[C@H](C)COc2ccccc2CCCNC1=O
**Result** ≤ 100 nM

**Query** Please answer likewise for CNC[C@@H]1NC(=O)[C@@H](C(C)C)NC(=O)[C@@H](Cc2cccc(F)c2)N[C@@H](C)COc2ccccc2CCCNC1=O
**Result** ≤ 10 nM

**Query** Please answer likewise for CNC[C@@H]1NC(=O)[C@@H](C(C)C)NC(=O)[C@@H](Cc2cccc(Cl)c2)NCCOc2ccccc2CCCNC1=O
**Result** ≤ 100 nM

**Query** Please answer likewise for Cc1cnnn1C[C@@H]1NC(=O)[C@@H](C(C)C)NC(=O)[C@@H](Cc2cccc(F)c2)N[C@@H](C)COc2ccccc2CCCNC1=O
**Result** ≤ 100 nM

**Query** Please answer likewise for CC(C)[C@H]1NC(=O)[C@@H](Cc2cccc(F)c2)N[C@@H](C)COc2ccccc2CCCNC(=O)[C@H](CN)NC1=O
**Result** ≤ 100 nM

**Query** Please answer likewise for CC(C)[C@H]1NC(=O)[C@@H](Cc2cccc(Cl)c2)N[C@@H](C)COc2ccccc2CCCNC(=O)[C@H](CNC(=N)N)NC1=O
**Result** ≤ 100 nM

**Query** Please answer likewise for CC(C)[C@H]1NC(=O)[C@@H](Cc2cccc(F)c2)N[C@@H](C)COc2ccccc2CCCNC(=O)[C@H](Cn2cccc2)NC1=O
**Result** ≤ 1 nM

**Query** Please answer likewise for CC(C)[C@H]1NC(=O)[C@@H](Cc2cccc(C(F)(F)F)c2)NCCOc2ccccc2CCCNC(=O)[C@H](CNC(=N)N)NC1=O
**Result** ≤ 100 nM

**Query** Please answer likewise for CC(C)[C@H]1NC(=O)[C@@H](Cc2cccc(C(F)(F)F)c2)NCCOc2ccccc2CCCNC(=O)[C@H](Cn2cccc2)NC1=O
**Result** ≤ 1 nM
